# TEST: Cytotoxicity against human TZM-bl cells incubated for 3 days by XTT assay
# Assay type: cell-based
# SETUP_CONDITIONS: TZM-bl cells
QUANTITY_NAME: CC50 at 72 h (µM)

1) NCC(NC(=O)c1ccc(-c2ccc(Cl)cc2)[nH]1)c1ncc(CO)s1 (stereo in doubt; 81A) : 38
2) CNCCC(NC(=O)c1ccc(-c2ccc(F)c(C)c2)[nH]1)c1nc(C)c(CO)s1 (stereo in doubt; 66A) : 38.9
3) CNCC(NC(=O)c1ccc(-c2cc(F)c(Cl)c(F)c2)[nH]1)c1ncc(CO)s1 (stereo in doubt; 88A) : 10.4
4) Cc1nc(C(NC(=O)c2ccc(-c3ccc(Cl)cc3)[nH]2)C2CCCCN2)sc1CO (stereo not drawn) : 23.6
5) CNCCC(NC(=O)c1ccc(-c2cccc(Cl)c2)[nH]1)c1nc(C)c(CO)s1 (stereo in doubt; 64A) : 23
6) CNCCC(NC(=O)c1ccc(-c2ccc(F)c(Cl)c2)[nH]1)c1nc(C)c(CO)s1 (stereo in doubt; 65A) : 22
7) Cc1cc(-c2ccc(Cl)cc2)[nH]c1C(=O)NC(CN)c1nc(C)c(CO)s1 (stereo in doubt; 27A) : 26.4
8) CNCC(NC(=O)c1ccc(-c2ccc(C)c(F)c2)[nH]1)c1ncc(CO)s1 (stereo in doubt; 87A) : 22.3

====

# TEST: Inhibition of HIV1 reverse transcriptase by colorimetric assay
# Parameters: species or system Human immunodeficiency virus 1
pIC50: −log10 of the molar value.
QUANTITY_NAME: pIC50

1. Cc1ccc(-c2ccc(C(=O)NC(CN)c3ncc(CO)s3)[nH]2)cc1F (stereo in doubt) : 5.14
2. Cc1nc(C(NC(=O)c2ccc(-c3ccc(Cl)cc3)[nH]2)C2CCCCN2)sc1CO (centres undefined) : 4.33
3. NCC(NC(=O)c1ccc(-c2cc(F)c(Cl)c(F)c2)[nH]1)c1ncc(CO)s1 (stereo in doubt) : 5.08

====

Reported CC50 at 96 h values for a set of compounds
# TEST: Cytotoxicity against human MT2 cells incubated for 4 days by XTT assay
# Assay type: cell-based
# SETUP_CONDITIONS: MT2 cells
QUANTITY_NAME: CC50 at 96 h (µM)

1) Cc1nc(C(CCN(C)C)NC(=O)c2ccc(-c3cccc(Cl)c3)[nH]2)sc1CO (stereo in doubt; 67A) : 26
2) CNCC(NC(=O)c1ccc(-c2ccc(C)c(F)c2)[nH]1)c1ncc(CO)s1 (stereo in doubt; 87A) : 26.6
3) Cc1nc(C(CCN(C)C)NC(=O)c2ccc(-c3ccc(F)c(Cl)c3)[nH]2)sc1CO (stereo in doubt; 68A) : 19.1
4) CNCC(NC(=O)c1ccc(-c2ccc(Cl)c(F)c2)[nH]1)c1nc(C)c(CO)s1 (stereo in doubt; 42A) : 21.7
5) Cc1ccc(-c2ccc(C(=O)NC(CN)c3ncc(CO)s3)[nH]2)cc1F (stereo in doubt; 83A) : 35.2
6) Cc1nc(C(NC(=O)c2ccc(-c3ccc(Cl)cc3)[nH]2)C2CCCCN2)sc1CO (stereo unspecified) : 24.8
7) CNCC(NC(=O)c1ccc(-c2ccc(Cl)cc2)[nH]1)c1nc(C)c(CO)s1 (stereo in doubt; 41A) : 27.2
8) CNCCC(NC(=O)c1ccc(-c2cccc(Cl)c2)[nH]1)c1nc(C)c(CO)s1 (stereo in doubt; 64A) : 25.1
9) COc1cc(C(=O)NC(CN)c2nc(C)c(CO)s2)[nH]c1-c1ccc(Cl)cc1 (stereo in doubt; 29A) : 25

====

# TEST: Cytotoxicity against human MT2 cells incubated for 4 days by XTT assay
# Type: cell-based
# SETUP_CONDITIONS: MT2 cells
Reported CC50 at 96 h values for a set of compounds
QUANTITY_NAME: CC50 at 96 h

1) Cc1nc(C(CN)NC(=O)c2ncc(-c3ccc(Cl)cc3)[nH]2)sc1CO (stereo in doubt; 30A) : > 51 µM
2) Cc1nc(C(CN(C)C)NC(=O)c2ccc(-c3ccc(Cl)c(F)c3)[nH]2)sc1CO (stereo in doubt; 45A) : > 40 µM
3) Cc1ccc(-c2ccc(C(=O)NC(CN(C)C)c3nc(C)c(CO)s3)[nH]2)cc1F (stereo not drawn) : > 40 µM

====

# TEST: Cytotoxicity against human TZM-bl cells incubated for 3 days by XTT assay
# Type: cell-based
# SETUP_CONDITIONS: TZM-bl cells
Reported CC50 at 72 h values for a set of compounds
QUANTITY_NAME: CC50 at 72 h (µM)

1. CNCC(NC(=O)c1ccc(-c2ccc(C)c(F)c2)[nH]1)c1nc(C)c(CO)s1 (stereo in doubt; 43A) : 33.5
2. Cc1nc(C(CCN(C)C)NC(=O)c2ccc(-c3cccc(Cl)c3)[nH]2)sc1CO (stereo in doubt; 67A) : 29.4
3. COc1cc(C(=O)NC(CN)c2nc(C)c(CO)s2)[nH]c1-c1ccc(Cl)cc1 (stereo in doubt; 29A) : 25.4
4. Cc1cc(-c2ccc(C(=O)NC(CCN)c3nc(C)c(CO)s3)[nH]2)ccc1F (stereo in doubt; 63A) : 33
5. Cc1nc(C(CN)NC(=O)c2ccc(-c3ccc(F)c(F)c3)[nH]2)sc1CO (stereo in doubt; 25A) : 57.3
6. CNCC(NC(=O)c1ccc(-c2ccc(Cl)cc2)[nH]1)c1nc(C)c(CO)s1 (stereo in doubt; 41A) : 28.4
7. Cc1ccc(-c2ccc(C(=O)NC(CN)c3ncc(CO)s3)[nH]2)cc1F (stereo in doubt; 83A) : 39.2
8. NCC(NC(=O)c1ccc(-c2ccc(Cl)c(F)c2)[nH]1)c1ncc(CO)s1 (stereo in doubt; 82A) : 37.4
